Test: Pharmacokinetics study in rats after oral administration (plasma, LC-MS/MS)
Format: in vivo, Wistar rats
Details: male, Wistar, rat, in vivo, po, 6 mg/kg, analyte DM in rat plasma; β-CD-DM group (inclusion compounds, DM:β-CD 6 mg/kg:393 mg/kg) oral; mean ± SD, n = 6
Counter-ions that a name gives are not always drawn.

[
  {
    "Molecule": "COc1ccc2c(c1)[C@]13CCCC[C@@H]1[C@H](C2)N(C)CC3 [DM, Dextromethorphan hydrobromide, reference compound]",
    "Unit tag": "min",
    "half-life": 1820
  }
]

###

Assay: Pharmacokinetics study in rats after oral administration (plasma, LC-MS/MS)
Assay type: in vivo, Wistar rats
Settings: male, Wistar, rat, plasma; 30 min after oral administration, 393 mg/kg; read-out: concentration of β-CD in rat plasma
Outcome measure: concentration at 30 min

[
  {
    "Smiles str": "OC[C@H]1O[C@@H]2O[C@H]3[C@H](O)[C@@H](O)[C@@H](O[C@H]4[C@H](O)[C@@H](O)[C@@H](O[C@H]5[C@H](O)[C@@H](O)[C@@H](O[C@H]6[C@H](O)[C@@H](O)[C@@H](O[C@H]7[C@H](O)[C@@H](O)[C@@H](O[C@H]8[C@H](O)[C@@H](O)[C@@H](O[C@H]1[C@H](O)[C@H]2O)O[C@@H]8CO)O[C@@H]7CO)O[C@@H]6CO)O[C@@H]5CO)O[C@@H]4CO)O[C@@H]3CO",
    "Reported result": "~3500 ng/mL"
  }
]
